test system: L02; assay: Cytotoxicity against human L02 cells assessed as cell growth inhibition measured after 24 hrs by MTT assay; assay type: cell-based; conditions: L02, 24 h
measuredParameter: IC50

INSERT INTO measurements (smilesrecord, valueobserved) VALUES
  ('C[C@@H]1CC[C@@]2(OC1)O[C@H]1C[C@H]3[C@@H]4CC=C5C[C@@H](OC(=O)CCC(=O)N6CC[N+](Cc7ccccc7)(Cc7ccccc7)CC6)CC[C@]5(C)[C@H]4CC[C@]3(C)[C@H]1[C@@H]2C', '18.7 µM'),
  ('C[C@@H]1CC[C@@]2(OC1)O[C@H]1C[C@H]3[C@@H]4CC=C5C[C@@H](OC(=O)CCC(=O)N6CC[N+](Cc7ccc(C(C)(C)C)cc7)(Cc7ccc(C(C)(C)C)cc7)CC6)CC[C@]5(C)[C@H]4CC[C@]3(C)[C@H]1[C@@H]2C', '21.2 µM');
